Target Under Test: human LPA1 (Homo sapiens)
Sequence (Q92633 whole entry): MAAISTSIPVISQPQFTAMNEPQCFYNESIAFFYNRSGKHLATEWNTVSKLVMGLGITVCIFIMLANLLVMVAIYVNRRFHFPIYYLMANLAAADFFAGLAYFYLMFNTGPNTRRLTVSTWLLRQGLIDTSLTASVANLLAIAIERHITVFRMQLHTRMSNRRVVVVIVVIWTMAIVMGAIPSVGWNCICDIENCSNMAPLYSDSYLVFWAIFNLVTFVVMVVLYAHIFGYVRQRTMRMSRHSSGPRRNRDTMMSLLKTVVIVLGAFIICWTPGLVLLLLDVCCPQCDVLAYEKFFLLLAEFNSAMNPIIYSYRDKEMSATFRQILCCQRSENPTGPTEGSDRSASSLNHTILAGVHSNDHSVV
Protocol Description: LPA1 functional antagonist assay (calcium flux)
Assay Setup: Chinese hamster ovary cells overexpressing human LPA1; calcium flux induced by 10 nM LPA; read-out: hLPA1 IC50
Protocol: The effectiveness of compounds of the present invention as LPA1 inhibitors can be determined in an LPA1 functional antagonist assay as follows: Chinese hamster ovary cells overexpressing human LPA1 were plated overnight (15,000 cells/well) in poly-D-lysine coated 384-well microplates (Greiner bio-one, Cat #781946) in DMEM/F12 medium (Gibco, Cat #11039). Following overnight culture, cells were loaded with calcium indicator dye (AAT Bioquest Inc, Cat #34601) for 30 minutes at 37° C. […]
Counter-ions that a name gives are not always drawn.
For each of the compounds below, state its pIC50.
pIC50 here is simply -log10 of the concentration when that concentration is written in mol/L.

What value of pIC50 on human LPA1 (Homo sapiens) does Cc1nc(-c2cnn(C)c2CNc2cnn(-c3ccccc3)n2)ncc1O[C@H]1CCC[C@H](C(=O)O)C1 [Example 1] have?
7.46

What value of pIC50 on human LPA1 (Homo sapiens) does Cc1nc(-c2cnn(C)c2CNc2ncn(-c3ccccc3)n2)ncc1O[C@H]1CCC[C@H](C(=O)O)C1 [Example 8] have?
7.04

What value of pIC50 on human LPA1 (Homo sapiens) does Cc1nc(-c2cnn(C)c2CNc2nc(C(C)C)ns2)ncc1O[C@H]1CCC[C@H](C(=O)O)C1 [Example 2] have?
5.73

What value of pIC50 on human LPA1 (Homo sapiens) does Cc1nc(-c2cnn(C)c2Cn2cc(CC3CC3)nn2)ncc1O[C@H]1CCC[C@H](C(=O)O)C1 [Example 9] have?
6.20

What value of pIC50 on human LPA1 (Homo sapiens) does CCCCc1nc(NCc2c(-c3ncc(O[C@H]4CCC[C@H](C(=O)O)C4)c(C)n3)cnn2C)no1 [Example 6] have?
7.51

What value of pIC50 on human LPA1 (Homo sapiens) does Cc1nc(-c2cnn(C)c2CNc2noc(CCC(C)C)n2)ncc1O[C@H]1CCC[C@H](C(=O)O)C1 [Example 4, bis TFA salt] have?
8.00

What value of pIC50 on human LPA1 (Homo sapiens) does CCc1nc(-c2cnn(C)c2Cn2cc(Cc3ccccc3)nn2)ncc1O[C@H]1CCC[C@H](C(=O)O)C1 [Example 10] have?
7.59

What value of pIC50 on human LPA1 (Homo sapiens) does CCCCc1cn(Cc2c(-c3ncc(O[C@H]4CCC[C@H](C(=O)O)C4)c(CC)n3)cnn2C)nn1 [Example 11] have?
6.40

What value of pIC50 on human LPA1 (Homo sapiens) does CCCc1nsc(Nc2c(-c3ncc(O[C@H]4CCC[C@H](C(=O)O)C4)c(C)n3)cnn2C)n1 [Example 3] have?
6.36

What value of pIC50 on human LPA1 (Homo sapiens) does Cc1nc(-c2cnn(C)c2Nc2nc(C3CC3)ns2)ncc1O[C@H]1CCC[C@H](C(=O)O)C1 [Example 5] have?
6.47

What value of pIC50 on human LPA1 (Homo sapiens) does CCc1nc(-c2cnn(C)c2Cn2cc(CC3CC3)nn2)ncc1O[C@H]1CCC[C@H](C(=O)O)C1 [Example 12] have?
6.64

What value of pIC50 on human LPA1 (Homo sapiens) does Cc1nc(-c2cnn(C)c2CNc2noc(CC3CCC3)n2)ncc1O[C@H]1CCC[C@H](C(=O)O)C1 [Example 7] have?
8.05
